Source: patent US20070254312A1

This document collects pIC50 values reported for PKCδ (Homo sapiens, UniProt Q05655).
Starred links: 1 amine or outer side, 2 acyl side, 3 side chain; linkers in the order of their positions; H or OH if unused. Non-standard residues stand in square brackets, D forms with d. Residues, ends and D or L forms follow the SMILES beside them. Groups on a side chain read outwards from the residue. *: point of attachment. X2 = N=C(N)NCCC[C@@H](C(=O)*)N(Cc1cccc(O)c1O)Cc1cccc(O)c1O; X1 = N=C(N)NCCC[C@@H](C(=O)[*:2])N(Cc1cccc(O)c1O)[*:1]; Benzoyl(4-NO2) = O=C(c1ccc([N+](=O)[O-])cc1)*; Cysteamide = C(CS[*:3])N[*:1]; Dap = NC[C@H](N)C(=O)O
Notebook: values listed as pIC50 are -log10 of the concentration (mol/L).

Query: Tell me reported pIC50 for CSCC[C@H](NC(=O)[C@H](Cc1ccccc1)NC(=O)[C@H](CNC(C)=O)NC(=O)CNC(=O)[C@H](CCC(N)=O)NC(=O)[C@H](CCCNC(=N)N)NC(=O)[C@H](CCCNC(=N)N)NC(C)=O)C(=O)N[C@@H](Cc1ccc(O)cc1)C(=O)N[C@@H](Cc1ccccc1)C(=O)NCCS [Compound A] (Ac-RRQG[Dap](Ac)FMYF-Cysteamide) , tested with PKCδ (Homo sapiens, UniProt Q05655).
Sequence (Q05655 whole entry): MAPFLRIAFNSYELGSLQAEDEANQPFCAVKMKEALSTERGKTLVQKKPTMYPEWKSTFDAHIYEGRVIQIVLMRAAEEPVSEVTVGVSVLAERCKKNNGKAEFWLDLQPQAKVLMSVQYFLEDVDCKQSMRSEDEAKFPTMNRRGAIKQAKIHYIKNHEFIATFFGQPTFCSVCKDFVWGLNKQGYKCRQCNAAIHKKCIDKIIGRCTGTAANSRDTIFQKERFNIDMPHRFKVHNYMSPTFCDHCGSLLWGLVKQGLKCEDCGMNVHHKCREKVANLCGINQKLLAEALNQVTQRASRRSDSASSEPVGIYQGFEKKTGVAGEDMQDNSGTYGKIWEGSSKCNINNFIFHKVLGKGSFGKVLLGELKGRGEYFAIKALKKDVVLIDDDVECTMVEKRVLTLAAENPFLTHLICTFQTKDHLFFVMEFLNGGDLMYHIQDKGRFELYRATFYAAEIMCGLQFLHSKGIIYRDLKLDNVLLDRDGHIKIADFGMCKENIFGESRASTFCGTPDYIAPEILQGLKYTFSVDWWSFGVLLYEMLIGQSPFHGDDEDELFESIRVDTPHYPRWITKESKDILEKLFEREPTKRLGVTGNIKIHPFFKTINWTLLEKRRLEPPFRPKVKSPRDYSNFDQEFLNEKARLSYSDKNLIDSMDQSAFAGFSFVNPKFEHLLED
Result: 4.30

Query: Fill in the recorded pIC50 for this molecule, with PKCδ (Homo sapiens, UniProt Q05655) as test system: CSCC[C@H](NC(=O)[C@H](Cc1ccccc1)NC(=O)[C@H](CNC(=O)CNC(=O)c1ccc([N+](=O)[O-])cc1)NC(=O)CNC(=O)[C@H](CCC(N)=O)NC(=O)[C@H](CCCNC(=N)N)NC(=O)[C@H](CCCNC(=N)N)N(Cc1cccc(O)c1O)Cc1cccc(O)c1O)C(=O)N[C@@H](Cc1ccc(O)cc1)C(=O)N[C@@H](Cc1ccccc1)C(=O)NCCS [Compound G] (X2-RQG[Dap]([Gly-Benzoyl(4-NO2)])FMYF-Cysteamide)
Result: 5.28

Query: Write down the reported pIC50 of CSCC[C@H](NC(=O)[C@H](Cc1ccccc1)NC(=O)[C@H](CNC(=O)CNC(=O)c1ccc([N+](=O)[O-])cc1)NC(=O)CNC(=O)[C@H](CCC(N)=O)NC(=O)[C@H](CCCNC(=N)N)NC(=O)[C@@H](N)CCCNC(=N)N)C(=O)N[C@@H](Cc1ccc(O)cc1)C(=O)N[C@@H](Cc1ccccc1)C(=O)NCCS [Compound E] (H-RRQG[Dap]([Gly-Benzoyl(4-NO2)])FMYF-Cysteamide) , test system: PKCδ (Homo sapiens, UniProt Q05655).
Result: 7.60

Query: For PKCδ (Homo sapiens, UniProt Q05655), provide pIC50 of CSCC[C@H](NC(=O)[C@H](Cc1ccccc1)NC(=O)[C@H](CNC(=O)CNC(=O)c1ccc([N+](=O)[O-])cc1)NC(=O)CNC(=O)[C@H](CCC(N)=O)NC(=O)[C@H](CCCNC(=N)N)NC(=O)[C@H](CCCNC(=N)N)NCc1cccc(O)c1O)C(=O)N[C@@H](Cc1ccc(O)cc1)C(=O)N[C@@H](Cc1ccccc1)C(=O)NCCS [Compound F] (H-[X1]RQG[Dap]([Gly-Benzoyl(4-NO2)])FMYF-Cysteamide) please.
Result: 7.74
